# test.target: T1, 4H2949-AA
# T1 chain: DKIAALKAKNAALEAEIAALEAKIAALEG
# test.details: two-hybrid library CCmax;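 note: natural log of median RNA to DNA barcode read ratio; higher means stronger binding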
# particulars: mean of both orientations
Listed here are binders together with their documented interaction score.
Answer with a number only.

Enquiry: Return reported interaction score; argument: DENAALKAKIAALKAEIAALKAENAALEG [4H1867-AA]
Return: -1.06

Enquiry: Return reported interaction score; argument: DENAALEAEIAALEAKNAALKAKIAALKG [4H1086-AA]
Return: 0.739

Enquiry: Return reported interaction score; argument: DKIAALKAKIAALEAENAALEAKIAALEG [4H2837-AA]
Return: -0.836

Enquiry: Return reported interaction score; argument: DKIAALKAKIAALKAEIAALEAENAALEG [4H2883-AA]
Return: 0.237

Enquiry: Return reported interaction score; argument: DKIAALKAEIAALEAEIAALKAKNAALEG [4H2575-AA]
Return: -0.954

Enquiry: Return reported interaction score; argument: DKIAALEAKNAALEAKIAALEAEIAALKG [4H2466-AA]
Return: -0.713

Enquiry: Return reported interaction score; argument: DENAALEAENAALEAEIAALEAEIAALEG [4H1153-AA]
Return: -0.947

Enquiry: Return reported interaction score; argument: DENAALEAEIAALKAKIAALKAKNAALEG [4H1135-AA]
Return: -1.21
